# EXPERIMENT DESCRIPTION: Solubility of the compound in pH 7.4 buffer by laser nephelometric method
# Type: physicochemical
MEASUREMENT TYPE: solubility kinetic

*Q* Suppose we examine the compound CCN(CC)CCCC(C)Nc1ccnc2c(NC(C)CCCN(CC)CC)ccnc12 (stereo not drawn) ; what solubility kinetic value has been reported?
*A* > 50 µg/mL

*Q* Same question, Cl.Cl.Cl.Cl.c1cc(NCCCCN2CCOCC2)c2ccc3c(ccc4c(NCCN5CCOCC5)ccnc43)c2n1 this time
*A* > 50 µg/mL

*Q* Again, but for CCN(CC)CCCNc1ccnc2c(NCCCN(CC)CC)ccnc12
*A* > 50 µg/mL

###

# Tested on: Ebolavirus
# EXPERIMENT DESCRIPTION: Antiviral activity against Ebolavirus H. sapiens-wt/1995/Kikwit-9510621 infected in human HeLa cells assessed as inhibition of viral infection pretreated for 2 hrs followed by viral infection and measured after 48 hrs by EboV GP immunostaining based high content imaging analysis
# Format: functional, organism-based
# MEASUREMENT CONDITIONS: Orthoebolavirus, H. sapiens-wt/1995/Kikwit-9510621, HeLa
I'd appreciate it if you marked entries Met when EC90 is lower than 20 µM and Not met when it is not.

*Q* Does the reported EC90 of the following compound sit strictly below 20 µM? CCN(CC)CCCNc1ccnc2c1ccc1c2ccc2c(NCCN3CCOCC3)ccnc21
*A* Met

*Q* Try CCN(CC)CCCC(C)Nc1ccnc2c(NC(C)CCCN(CC)CC)ccnc12 (configuration not stated) next.
*A* Met

*Q* Please answer likewise for Cl.Cl.Cl.Cl.c1cc(NCCCCN2CCOCC2)c2ccc3c(ccc4c(NCCN5CCOCC5)ccnc43)c2n1
*A* Met

*Q* // repeat for CCN(CC)CCNc1ccnc2c(NCCN(CC)CC)ccnc12 and report
*A* Not met

*Q* Please give the result for OC(CNc1ccnc2c1ccc1c2ccc2c(NCCN3CCOCC3)ccnc21)CN1CCOCC1 (configuration not stated) too.
*A* Met

*Q* Same for CCN(CC)CCCNc1ccnc2c(NCCCN(CC)CC)ccnc12
*A* Not met

###

# EXPERIMENT DESCRIPTION: Half life in human liver microsomes
# Format: ADME, Microsome
MEASUREMENT TYPE: half-life

*Q* Please look up its half-life: Cl.Cl.Cl.Cl.c1cc(NCCCCN2CCOCC2)c2ccc3c(ccc4c(NCCN5CCOCC5)ccnc43)c2n1
*A* 42.1 min

*Q* Try this molecule next: CCN(CC)CCCNc1ccnc2c(NCCCN(CC)CC)ccnc12
*A* > 60 min

*Q* CCN(CC)CCCC(C)Nc1ccnc2c(NC(C)CCCN(CC)CC)ccnc12 (stereo not drawn) , same question.
*A* > 60 min

###

# EXPERIMENT DESCRIPTION: Half life in mouse liver microsomes
# Format: ADME, Microsome
For each entry below, report its half-life value.

*Q* What half-life value was documented for this compound, CCN(CC)CCCC(C)Nc1ccnc2c(NC(C)CCCN(CC)CC)ccnc12 (stereo not drawn) ?
*A* 0.7 h

*Q* Also, CCN(CC)CCCNc1ccnc2c(NCCCN(CC)CC)ccnc12 please.
*A* > 1 h

*Q* Try this compound too: Cl.Cl.Cl.Cl.c1cc(NCCCCN2CCOCC2)c2ccc3c(ccc4c(NCCN5CCOCC5)ccnc43)c2n1
*A* 1.03 h
